- subject-of-test: Hypoxanthine-guanine phosphoribosyltransferase (Homo sapiens, UniProt P00492)
- Sequence (P00492 whole entry): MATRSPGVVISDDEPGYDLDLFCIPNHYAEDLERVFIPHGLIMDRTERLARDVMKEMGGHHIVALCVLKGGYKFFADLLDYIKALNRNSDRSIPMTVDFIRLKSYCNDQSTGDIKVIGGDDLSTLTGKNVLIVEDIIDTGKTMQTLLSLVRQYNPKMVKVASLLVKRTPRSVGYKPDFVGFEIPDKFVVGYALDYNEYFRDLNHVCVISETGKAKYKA
- assay-explanation: Inhibition of recombinant human HGPRT using fixed concentration of guanine and variable concentrations of PRib-PP as substrate by Hanes plot analysis
attribute-measured: Ki (nM)
Give a bare numeral; the unit nM is implied.

Nc1nc2c(ncn2[C@@H]2CN(C(=O)CCP(=O)(O)O)C[C@H]2OC[C@H](O)P(=O)(O)O)c(=O)[nH]1: 8

Now examine the next entry.
The recorded Ki for Nc1nc2c(ncn2[C@@H]2CN(C(=O)CCP(=O)(O)O)C[C@H]2OC[C@@H](O)P(=O)(O)O)c(=O)[nH]1 is 3
